Biological target: hERG current in hERG-expressed HEK 293 cells (Homo sapiens)
Construct: host or cells: HEK 293 cells, G418-selected
Sequence (Q12809 whole entry): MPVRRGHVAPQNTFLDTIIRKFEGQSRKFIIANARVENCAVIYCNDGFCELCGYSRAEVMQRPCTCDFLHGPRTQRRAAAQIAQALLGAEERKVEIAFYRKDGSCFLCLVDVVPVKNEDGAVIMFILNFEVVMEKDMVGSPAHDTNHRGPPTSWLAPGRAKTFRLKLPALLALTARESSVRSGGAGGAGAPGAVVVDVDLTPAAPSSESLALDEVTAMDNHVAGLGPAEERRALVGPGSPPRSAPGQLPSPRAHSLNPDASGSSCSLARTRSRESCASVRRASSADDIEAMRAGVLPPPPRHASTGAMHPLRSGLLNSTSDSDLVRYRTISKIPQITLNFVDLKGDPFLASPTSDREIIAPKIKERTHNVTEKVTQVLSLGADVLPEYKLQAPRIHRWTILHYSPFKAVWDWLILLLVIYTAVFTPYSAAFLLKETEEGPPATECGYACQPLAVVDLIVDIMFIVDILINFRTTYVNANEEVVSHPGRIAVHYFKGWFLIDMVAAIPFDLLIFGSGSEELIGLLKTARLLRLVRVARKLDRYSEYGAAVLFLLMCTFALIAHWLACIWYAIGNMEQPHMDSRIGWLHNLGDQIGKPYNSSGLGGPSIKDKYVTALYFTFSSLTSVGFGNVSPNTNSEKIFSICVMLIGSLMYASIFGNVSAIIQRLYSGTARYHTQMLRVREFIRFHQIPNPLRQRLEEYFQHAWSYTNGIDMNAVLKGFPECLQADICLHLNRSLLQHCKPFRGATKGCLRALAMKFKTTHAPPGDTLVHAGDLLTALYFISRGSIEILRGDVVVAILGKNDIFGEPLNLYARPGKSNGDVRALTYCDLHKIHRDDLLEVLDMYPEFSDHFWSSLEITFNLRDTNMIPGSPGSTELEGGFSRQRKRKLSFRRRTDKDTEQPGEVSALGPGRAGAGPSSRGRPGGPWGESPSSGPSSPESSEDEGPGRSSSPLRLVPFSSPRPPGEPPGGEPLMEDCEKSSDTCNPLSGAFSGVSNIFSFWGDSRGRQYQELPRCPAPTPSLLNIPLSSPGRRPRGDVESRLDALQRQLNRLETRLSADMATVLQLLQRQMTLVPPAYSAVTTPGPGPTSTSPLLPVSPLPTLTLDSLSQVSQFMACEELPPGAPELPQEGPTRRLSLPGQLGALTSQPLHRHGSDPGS
Test: Effects on hERG current (whole-cell clamp)
Assay type: cell-based
Settings: 1 μM of test compound, tail peak current
measure_name: Inhibition ratio (%)

Solved cases (5 shown):
Cc1cc(NC(=O)c2cnn(-c3ccc(Cl)cc3)c2C)cnc1N1CCC(O)CC1
9.4%
Cc1c(C(=O)Nc2cnc(N3CCC(O)CC3)c(C#N)c2)cnn1-c1ccc(C(F)(F)F)cc1
4.2%
Cc1cc(NC(=O)c2cnn(-c3ccc(C(F)(F)F)cc3)c2C)cnc1N1CCC(C(C)(C)F)CC1
32.7%
Cc1c(C(=O)Nc2cnc(N3CCC(O)CC3)c(C#N)c2)cnn1-c1ccc(Cl)cc1
2%
Cc1cc(NC(=O)c2cnn(-c3ccc(C(F)(F)F)cn3)c2C)cnc1N1CCC(C(C)(C)F)CC1
40.5%

Shifting focus to the compound that follows.
Input: Quick check: Inhibition ratio (%) of Cc1c(C(=O)Nc2cnc(N3CCC(O)CC3)c(C3CC3)c2)cnn1-c1ccc(Cl)cc1 ?
Output: 8.1%

###

Test system: HepG2 cells
Test: Evaluation of hepatocyte cytotoxicity using HepG2 cells (CellTiter-Glo)
Type: cell-based, human
Details: cell survival rate
measure_name: Survival rate (%)
Quick note: give the figure in %, leave out the unit.

Cc1cc(NC(=O)c2cnn(-c3ccc(C(F)(F)F)cc3)c2C)cnc1N1CCC(C(C)(C)F)CC1
99.8
Cc1cc(NC(=O)c2cnn(-c3ccc(C(F)(F)F)cn3)c2C)cnc1N1CCC(C(C)(C)F)CC1
102.3
Cc1c(C(=O)Nc2cnc(N3CCC(O)CC3)c(C3CC3)c2)cnn1-c1ccc(Cl)cc1
107.1

Input: What value of measured Survival rate (%) is listed for Cc1c(C(=O)Nc2cnc(N3CCC(O)CC3)c(C#N)c2)cnn1-c1ccc(C(F)(F)F)cc1 ?
Output: 92.5

Input: Quick one: Survival rate (%) of Cc1cc(NC(=O)c2cnn(-c3ccc(Cl)cc3)c2C)cnc1N1CCC(O)CC1 ?
Output: 117.8

Input: Need Survival rate (%), item Cc1c(C(=O)Nc2cnc(N3CCC(O)CC3)c(C#N)c2)cnn1-c1ccc(Cl)cc1
Output: 95.8
